- assayed_target: human TIMP-3 (Homo sapiens, UniProt P35625)
- Sequence (P35625 24-211): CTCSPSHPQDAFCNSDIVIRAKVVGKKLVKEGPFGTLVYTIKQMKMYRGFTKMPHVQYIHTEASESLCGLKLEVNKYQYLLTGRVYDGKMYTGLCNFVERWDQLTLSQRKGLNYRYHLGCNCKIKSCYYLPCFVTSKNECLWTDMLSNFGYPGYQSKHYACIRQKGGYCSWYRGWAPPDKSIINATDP
- assay_name: Solid-phase binding of TIMP-3 to immobilized suramin or analogs (ELISA)
- experimental_conditions: plates coated with 10 µg/ml compound; TIMP-3 0.4–50 nM; one-site specific binding model; mean ± S.E., n = 3
readout_label: EC50

O=C(Nc1cccc(C(=O)Nc2cc(C(=O)Nc3ccc(S(=O)(=O)O)c4cc(S(=O)(=O)O)cc(S(=O)(=O)O)c34)ccc2F)c1)Nc1cccc(C(=O)Nc2cc(C(=O)Nc3ccc(S(=O)(=O)O)c4cc(S(=O)(=O)O)cc(S(=O)(=O)O)c34)ccc2F)c1 [NF157] :: 1.55 nM

Recorded result, Cc1ccc(C(=O)Nc2ccc(CP(=O)([O-])O)cc2CP(=O)([O-])O)cc1NC(=O)c1cccc(NC(=O)Nc2cccc(C(=O)Nc3cc(C(=O)Nc4ccc(CP(=O)([O-])O)cc4CP(=O)([O-])O)ccc3C)c2)c1.[Na+].[Na+].[Na+].[Na+] [NF546] , EC50: > 100 nM

Recorded result, Cc1ccc(C(=O)Nc2cc(S(=O)(=O)[O-])cc3ccc(S(=O)(=O)[O-])cc23)cc1NC(=O)Nc1cc(C(=O)Nc2cc(S(=O)(=O)[O-])cc3ccc(S(=O)(=O)[O-])cc23)ccc1C.[Na+].[Na+].[Na+].[Na+] [NF340] , EC50: > 100 nM

Recorded result, Cc1ccc(C(=O)Nc2ccc(S(=O)(=O)O)c3cc(S(=O)(=O)O)cc(S(=O)(=O)O)c23)cc1NC(=O)c1cccc(NC(=O)Nc2cccc(C(=O)Nc3cc(C(=O)Nc4ccc(S(=O)(=O)O)c5cc(S(=O)(=O)O)cc(S(=O)(=O)O)c45)ccc3C)c2)c1 [suramin] , EC50: 1.9 nM

* * *

- assayed_target: UniProt:P35625
- assay_name: Solid-phase binding of TIMP-3 to immobilized suramin or analogs (ELISA)
- experimental_conditions: plates coated with 10 µg/ml compound; TIMP-3 0.4–50 nM; one-site specific binding model; mean ± S.E., n = 3
- Procedure: Glycosaminoglycan-binding ELISA plates (BD Life Sciences, Swindon, UK) were coated with suramin or its analogs (10 µg/ml in Tris-buffered saline, 18 hours, 25°C) ([Mahoney et al., 2004]) and wells were blocked with 0.2% gelatin in PBS (1 hour, 37°C). […] Purified FLAG-tagged human TIMP-3 (0.4–50 nM) in blocking solution was applied to wells (3 hours, 37°C), and binding was detected with anti-FLAG M2 primary antibody and anti-mouse horseradish peroxidase–conjugated secondary antibody. […]
In this section we review reported pEC50 values for a set of molecules.
Give only the number. pEC50 is defined as minus log10 of concentration in molar units.

Some solved entries appear below for comparison.
O=C(Nc1cccc(C(=O)Nc2ccc(S(=O)(=O)O)c3cc(S(=O)(=O)O)cc(S(=O)(=O)O)c23)c1)Nc1cccc(C(=O)Nc2ccc(S(=O)(=O)O)c3cc(S(=O)(=O)O)cc(S(=O)(=O)O)c23)c1 :: 7.58
O=C(Nc1cc(C(=O)Nc2ccc(S(=O)(=O)O)cc2)cc(C(=O)Nc2ccc(S(=O)(=O)O)cc2)c1)Nc1cc(C(=O)Nc2ccc(S(=O)(=O)O)cc2)cc(C(=O)Nc2ccc(S(=O)(=O)O)cc2)c1 :: 8.16
O=C(Nc1ccc(C(=O)Nc2ccc(C(=O)Nc3ccc(S(=O)(=O)O)c4cc(S(=O)(=O)O)cc(S(=O)(=O)O)c34)cc2)cc1)Nc1ccc(C(=O)Nc2ccc(C(=O)Nc3ccc(S(=O)(=O)O)c4cc(S(=O)(=O)O)cc(S(=O)(=O)O)c34)cc2)cc1 :: 9.07

Next up:
Recorded result, "O=C(Nc1cc(C(=O)Nc2ccc(S(=O)(=O)O)cc2S(=O)(=O)O)cc(C(=O)Nc2ccc(S(=O)(=O)O)cc2S(=O)(=O)O)c1)Nc1cc(C(=O)Nc2ccc(S(=O)(=O)O)cc2S(=O)(=O)O)cc(C(=O)Nc2ccc(S(=O)(=O)O)cc2S(=O)(=O)O)c1" , pEC50: 8.33
